Experiment: The drug is tested on Z-025 corresponding to rabbit gut metagenome with ENA study accession number: PRJEB37062 and ENA sample accession number: ERS12561824 for biotransformation under anaerobic condition. The drug concentrations were measured over 9 timepoints collected between 0 and 24 hours of incubation by liquid-chromatography-coupled mass spectrometry (LC–MS); note: call rule not given here
Details: 2 µM
Quantity: Bacterial Biotransformation

>  <Molecule>
CN/C(=N/CCSCc1nc[nH]c1C)NC#N [CIMETIDINE]

>  <Bacterial Biotransformation>
Compound NOT metabolized

$$$$
>  <Molecule>
C=CCc1ccccc1OCC(O)CNC(C)C (centres undefined) [ALPRENOLOL]

>  <Bacterial Biotransformation>
Compound metabolized

$$$$
>  <Molecule>
CN1CCc2c(c3ccccc3n2Cc2ccccc2)C1.CN1CCc2c(c3ccccc3n2Cc2ccccc2)C1.O=S(=O)(O)c1cccc2c(S(=O)(=O)O)cccc12

>  <Bacterial Biotransformation>
Compound metabolized

$$$$
>  <Molecule>
C#C[C@]1(O)CC[C@H]2[C@@H]3CCC4=CC(=O)CC[C@@H]4[C@H]3CC[C@@]21CC [LEVONORGESTREL]

>  <Bacterial Biotransformation>
Compound metabolized

$$$$
>  <Molecule>
CCCC(=O)Nc1ccc(OCC(O)CNC(C)C)c(C(C)=O)c1 (centres undefined) [ACEBUTOLOL]

>  <Bacterial Biotransformation>
Compound NOT metabolized

$$$$
>  <Molecule>
CCOC(=O)[C@H](CCc1ccccc1)N[C@@H](C)C(=O)N1[C@H](C(=O)O)C[C@@H]2CCC[C@@H]21

>  <Bacterial Biotransformation>
Compound NOT metabolized

$$$$

Please give Bacterial Biotransformation, item by item, for the list that follows.
1. O=C(NCc1ccccc1)OCCO [BURAMATE]
2. Fc1ccc([C@@H]2CCNC[C@H]2COc2ccc3c(c2)OCO3)cc1 [PAROXETINE]
3. COc1cc2nc(N(C)CCCNC(=O)C3CCCO3)nc(N)c2cc1OC (centres undefined) [ALFUZOSIN]

Reply text:
["Compound NOT metabolized", "Compound NOT metabolized", "Compound NOT metabolized"]

Ref: ChEMBL document CHEMBL5724914
